- subjectOfTest: GSPT1 (Homo sapiens, UniProt P15170+Q96SW2)
- Sequence (P15170 whole entry): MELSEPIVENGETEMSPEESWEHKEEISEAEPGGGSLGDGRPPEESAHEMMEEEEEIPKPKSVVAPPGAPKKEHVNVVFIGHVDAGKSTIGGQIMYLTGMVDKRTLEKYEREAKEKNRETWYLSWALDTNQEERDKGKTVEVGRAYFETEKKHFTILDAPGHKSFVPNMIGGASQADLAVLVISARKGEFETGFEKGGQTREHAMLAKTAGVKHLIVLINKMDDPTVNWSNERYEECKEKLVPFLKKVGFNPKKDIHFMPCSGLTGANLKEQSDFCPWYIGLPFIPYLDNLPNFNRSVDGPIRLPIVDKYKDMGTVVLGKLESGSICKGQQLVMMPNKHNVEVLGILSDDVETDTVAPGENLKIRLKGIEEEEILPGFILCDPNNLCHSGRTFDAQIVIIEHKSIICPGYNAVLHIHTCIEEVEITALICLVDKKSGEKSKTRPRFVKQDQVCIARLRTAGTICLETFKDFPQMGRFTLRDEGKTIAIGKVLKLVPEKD
- Sequence (Q96SW2 whole entry): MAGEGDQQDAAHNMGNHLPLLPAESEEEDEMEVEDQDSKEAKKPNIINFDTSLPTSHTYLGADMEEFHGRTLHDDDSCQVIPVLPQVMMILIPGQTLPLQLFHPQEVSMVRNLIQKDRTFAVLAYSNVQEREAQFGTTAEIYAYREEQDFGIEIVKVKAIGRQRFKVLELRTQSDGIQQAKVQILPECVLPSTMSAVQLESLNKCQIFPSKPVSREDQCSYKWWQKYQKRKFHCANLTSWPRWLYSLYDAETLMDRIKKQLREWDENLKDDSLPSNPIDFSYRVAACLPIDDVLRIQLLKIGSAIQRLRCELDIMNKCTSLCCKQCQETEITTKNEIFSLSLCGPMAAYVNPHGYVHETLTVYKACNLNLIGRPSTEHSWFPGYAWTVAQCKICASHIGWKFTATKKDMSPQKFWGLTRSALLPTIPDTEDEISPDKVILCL
- Sequence (Q16531 2-1140 partner limits assumed): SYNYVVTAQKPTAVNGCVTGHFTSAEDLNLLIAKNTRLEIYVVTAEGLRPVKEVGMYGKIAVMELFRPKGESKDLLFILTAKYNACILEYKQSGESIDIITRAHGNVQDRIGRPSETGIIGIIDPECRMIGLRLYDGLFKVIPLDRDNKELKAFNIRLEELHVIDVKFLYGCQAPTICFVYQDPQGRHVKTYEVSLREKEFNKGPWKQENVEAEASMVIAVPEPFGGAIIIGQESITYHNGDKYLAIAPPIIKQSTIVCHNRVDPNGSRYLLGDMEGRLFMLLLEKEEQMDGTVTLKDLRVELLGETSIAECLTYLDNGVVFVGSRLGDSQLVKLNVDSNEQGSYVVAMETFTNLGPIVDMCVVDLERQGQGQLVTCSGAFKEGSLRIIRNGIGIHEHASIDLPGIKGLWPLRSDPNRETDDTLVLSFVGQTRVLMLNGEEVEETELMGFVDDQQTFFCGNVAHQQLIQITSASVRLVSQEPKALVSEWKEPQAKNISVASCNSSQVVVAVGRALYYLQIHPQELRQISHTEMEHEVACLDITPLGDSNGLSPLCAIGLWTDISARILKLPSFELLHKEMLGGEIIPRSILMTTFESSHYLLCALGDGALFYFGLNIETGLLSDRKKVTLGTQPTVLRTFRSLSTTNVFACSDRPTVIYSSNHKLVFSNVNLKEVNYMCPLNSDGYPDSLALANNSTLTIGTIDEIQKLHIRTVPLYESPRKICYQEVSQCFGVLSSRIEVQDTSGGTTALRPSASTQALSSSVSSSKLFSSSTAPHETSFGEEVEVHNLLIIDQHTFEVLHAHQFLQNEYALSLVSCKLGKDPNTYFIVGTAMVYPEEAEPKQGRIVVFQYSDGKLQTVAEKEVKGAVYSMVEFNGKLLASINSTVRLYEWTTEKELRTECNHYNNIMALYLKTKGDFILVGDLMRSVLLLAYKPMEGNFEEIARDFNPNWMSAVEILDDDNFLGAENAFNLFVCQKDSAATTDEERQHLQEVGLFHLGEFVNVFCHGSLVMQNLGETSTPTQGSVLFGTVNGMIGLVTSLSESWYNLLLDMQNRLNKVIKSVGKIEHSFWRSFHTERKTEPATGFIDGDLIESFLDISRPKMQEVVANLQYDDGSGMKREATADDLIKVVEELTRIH
- assayText: Immunofluorescence assay for GSPT1 degradation in CAL-51 cells
- Assay type: cell-based
- Set-up: CAL-51 cells were purchased from DSMZ (cat. Number ACC302); endogenous in cells; host or cells: CAL-51 (DSMZ ACC302)
- runParameters: compound treatment 6 hours, read-out: Code: activity for GSPT1 degradation (DC50)

- molecule: "O=C1CCC(N2Cc3ccc(CNC(=O)Nc4cccc(OC(F)(F)F)c4)cc3C2=O)C(=O)N1 (centres unmarked)"
  subjectOfTest: "GSPT1 (Homo sapiens, UniProt P15170+Q96SW2)"
  DC50: "≤ 100 nM"
- molecule: "O=C1CCC(N2Cc3ccc(CNC(=O)Nc4ccc(OC(F)(F)F)cc4)cc3C2=O)C(=O)N1 (centres unmarked)"
  subjectOfTest: "GSPT1 (Homo sapiens, UniProt P15170+Q96SW2)"
  DC50: "≤ 100 nM"
- molecule: "COc1ccccc1NC(=O)NCc1ccc2c(c1)C(=O)N(C1CCC(=O)NC1=O)C2 (centres unmarked)"
  subjectOfTest: "GSPT1 (Homo sapiens, UniProt P15170+Q96SW2)"
  DC50: "> 300 nM"
- molecule: "Cc1ncc(NC(=O)NCc2ccc3c(c2)C(=O)N(C2CCC(=O)NC2=O)C3)cc1Cl (centres unmarked)"
  subjectOfTest: "GSPT1 (Homo sapiens, UniProt P15170+Q96SW2)"
  DC50: "> 300 nM"
- molecule: "Cc1ccc(NC(=O)NCc2ccc3c(c2)C(=O)N(C2CCC(=O)NC2=O)C3)c(Cl)c1Cl (centres unmarked)"
  subjectOfTest: "GSPT1 (Homo sapiens, UniProt P15170+Q96SW2)"
  DC50: "> 300 nM"
- molecule: "Nc1ccc(NC(=O)NCc2ccc3c(c2)C(=O)N(C2CCC(=O)NC2=O)C3)cc1 (centres unmarked)"
  subjectOfTest: "GSPT1 (Homo sapiens, UniProt P15170+Q96SW2)"
  DC50: "> 300 nM"
- molecule: "Cc1ccc(NC(=O)NCc2ccc3c(c2)C(=O)N(C2CCC(=O)NC2=O)C3)cc1C (centres unmarked)"
  subjectOfTest: "GSPT1 (Homo sapiens, UniProt P15170+Q96SW2)"
  DC50: "100 to 300 nM"
- molecule: "Cc1cc(C)c(NC(=O)NCc2ccc3c(c2)C(=O)N(C2CCC(=O)NC2=O)C3)c(Cl)c1Cl (centres unmarked)"
  subjectOfTest: "GSPT1 (Homo sapiens, UniProt P15170+Q96SW2)"
  DC50: "> 300 nM"

====

- subjectOfTest: GSPT1 (Homo sapiens, UniProt P15170+Q96SW2)
- assayText: Immunofluorescence assay for GSPT1 degradation in CAL-51 cells
- Type: cell-based
- Set-up: CAL-51 cells were purchased from DSMZ (cat. Number ACC302); endogenous in cells; host or cells: CAL-51 (DSMZ ACC302)
- runParameters: compound treatment 6 hours, read-out: Code: activity for GSPT1 degradation (DC50)
assayMetric: DC50

- compound: "O=C1CCC(N2Cc3ccc(CNC(=O)Nc4ccccn4)cc3C2=O)C(=O)N1 (stereo not shown)"
  testResult: "> 0.3 µM"
- compound: "CN1CCC(COc2cc(Cl)cc(NC(=O)NCc3ccc4c(c3)C(=O)N(C3CCC(=O)NC3=O)C4)c2)C1 (stereo not shown)"
  testResult: "> 0.3 µM"
- compound: "Cc1ccccc1NC(=O)NCc1ccc2c(c1)C(=O)N(C1CCC(=O)NC1=O)C2 (stereo not shown)"
  testResult: "> 0.3 µM"
- compound: "Cc1c(Cl)cc(NC(=O)NCc2ccc3c(c2)C(=O)N(C2CCC(=O)NC2=O)C3)cc1CN1CCOCC1 (stereo not shown)"
  testResult: "≤ 0.1 µM"
- compound: "O=C1CCC(N2Cc3ccc(CNC(=O)Nc4cc(OC(F)(F)F)ccn4)cc3C2=O)C(=O)N1 (stereo not shown)"
  testResult: "> 0.3 µM"
- compound: "Cc1c(Cl)cc(NC(=O)NCc2ccc3c(c2)C(=O)N(C2CCC(=O)NC2=O)C3)cc1N1CCOCC1 (stereo not shown)"
  testResult: "≤ 0.1 µM"
- compound: "Cc1cccc(C)c1NC(=O)NCc1ccc2c(c1)C(=O)N(C1CCC(=O)NC1=O)C2 (stereo not shown)"
  testResult: "> 0.3 µM"
- compound: "O=C1CCC(N2Cc3ccc(CNC(=O)Nc4cc[nH]c4)cc3C2=O)C(=O)N1 (stereo not shown)"
  testResult: "> 0.3 µM"
- compound: "O=C1CCC(N2Cc3ccc(CNC(=O)Nc4ccccc4F)cc3C2=O)C(=O)N1 (stereo not shown)"
  testResult: "> 0.3 µM"
- compound: "CCNC(=O)NCc1ccc2c(c1)C(=O)N(C1CCC(=O)NC1=O)C2 (stereo not shown)"
  testResult: "> 0.3 µM"
- compound: "Cc1c(Cl)cc(NC(=O)NCc2ccc3c(c2)C(=O)N(C2CCC(=O)NC2=O)C3)cc1C[C@H]1CO[C@@H](C)OC1 (stereo partly shown)"
  testResult: "≤ 0.1 µM"
- compound: "CCCCCCNC(=O)NCc1ccc2c(c1)C(=O)N(C1CCC(=O)NC1=O)C2 (stereo not shown)"
  testResult: "> 0.3 µM"
- compound: "O=C1CCC(N2Cc3ccc(CNC(=O)Nc4ccc5c(c4)OCO5)cc3C2=O)C(=O)N1 (stereo not shown)"
  testResult: "> 0.3 µM"
- compound: "CC(C)(C)c1ccc(NC(=O)NCc2ccc3c(c2)C(=O)N(C2CCC(=O)NC2=O)C3)cc1 (stereo not shown)"
  testResult: "≤ 0.1 µM"
- compound: "Cc1c(Cl)cc(NC(=O)NCc2ccc3c(c2)C(=O)N(C2CCC(=O)NC2=O)C3)cc1N(C)C (stereo not shown)"
  testResult: "≤ 0.1 µM"
- compound: "CC(C)(C)c1ccccc1NC(=O)NCc1ccc2c(c1)C(=O)N(C1CCC(=O)NC1=O)C2 (stereo not shown)"
  testResult: "> 0.3 µM"
- compound: "COc1ccc(CNC(=O)NCc2ccc3c(c2)C(=O)N(C2CCC(=O)NC2=O)C3)cc1 (stereo not shown)"
  testResult: "> 0.3 µM"
- compound: "COc1ccc(NC(=O)NCc2ccc3c(c2)C(=O)N(C2CCC(=O)NC2=O)C3)cc1 (stereo not shown)"
  testResult: "> 0.3 µM"
- compound: "Cc1cc(C)cc(NC(=O)NCc2ccc3c(c2)C(=O)N(C2CCC(=O)NC2=O)C3)c1 (stereo not shown)"
  testResult: "≤ 0.1 µM"
- compound: "O=C1CCC(N2Cc3ccc(CNC(=O)Nc4cccc(Cl)c4)cc3C2=O)C(=O)N1 (stereo not shown)"
  testResult: "> 0.3 µM"
- compound: "O=C1CCC(N2Cc3ccc(CNC(=O)Nc4ccc(-c5ccccc5)cc4)cc3C2=O)C(=O)N1 (stereo not shown)"
  testResult: "≤ 0.1 µM"
- compound: "COc1c(NC(=O)NCc2ccc3c(c2)C(=O)N(C2CCC(=O)NC2=O)C3)ccc(C)c1Cl (stereo not shown)"
  testResult: "> 0.3 µM"
- compound: "Cc1ccc(NC(=O)NCc2ccc3c(c2)C(=O)N(C2CCC(=O)NC2=O)C3)cc1 (stereo not shown)"
  testResult: "> 0.3 µM"
- compound: "Cc1ccc(F)c(NC(=O)NCc2ccc3c(c2)C(=O)N(C2CCC(=O)NC2=O)C3)c1 (stereo not shown)"
  testResult: "> 0.3 µM"
- compound: "O=C1CCC(N2Cc3ccc(CNC(=O)NC4CCCC4)cc3C2=O)C(=O)N1 (stereo not shown)"
  testResult: "> 0.3 µM"
- compound: "CCOc1ccccc1NC(=O)NCc1ccc2c(c1)C(=O)N(C1CCC(=O)NC1=O)C2 (stereo not shown)"
  testResult: "> 0.3 µM"
- compound: "Cc1ccc(NC(=O)NCc2ccc3c(c2)C(=O)N(C2CCC(=O)NC2=O)C3)cc1CN1CCOCC1 (stereo not shown)"
  testResult: "0.1 to 0.3 µM"
- compound: "CN(C)CC(=O)Oc1cccc(NC(=O)NCc2ccc3c(c2)C(=O)N(C2CCC(=O)NC2=O)C3)c1 (stereo not shown)"
  testResult: "> 0.3 µM"
- compound: "Nc1cccc(NC(=O)NCc2ccc3c(c2)C(=O)N(C2CCC(=O)NC2=O)C3)c1 (stereo not shown)"
  testResult: "> 0.3 µM"
- compound: "O=C1CCC(N2Cc3ccc(CNC(=O)Nc4cccc(OC5CCNCC5)c4)cc3C2=O)C(=O)N1 (stereo not shown)"
  testResult: "> 0.3 µM"
- compound: "Cc1cccc(NC(=O)NCc2ccc3c(c2)C(=O)N(C2CCC(=O)NC2=O)C3)c1C (stereo not shown)"
  testResult: "> 0.3 µM"

====

- subjectOfTest: ZFP91 (Homo sapiens, UniProt Q96JP5)
- Construct: MM1S cells were purchased from ATCC (cat. Number CRL-2974); endogenous in cells; host or cells: MM1S (ATCC CRL-2974)
- Sequence (Q96SW2 whole entry partner): as the sequence (Q96SW2 whole entry) above
- Sequence (Q16531 2-1140 partner limits assumed): as the sequence (Q16531 2-1140 partner limits assumed) above
- Sequence (Q96JP5 2-570 limits assumed): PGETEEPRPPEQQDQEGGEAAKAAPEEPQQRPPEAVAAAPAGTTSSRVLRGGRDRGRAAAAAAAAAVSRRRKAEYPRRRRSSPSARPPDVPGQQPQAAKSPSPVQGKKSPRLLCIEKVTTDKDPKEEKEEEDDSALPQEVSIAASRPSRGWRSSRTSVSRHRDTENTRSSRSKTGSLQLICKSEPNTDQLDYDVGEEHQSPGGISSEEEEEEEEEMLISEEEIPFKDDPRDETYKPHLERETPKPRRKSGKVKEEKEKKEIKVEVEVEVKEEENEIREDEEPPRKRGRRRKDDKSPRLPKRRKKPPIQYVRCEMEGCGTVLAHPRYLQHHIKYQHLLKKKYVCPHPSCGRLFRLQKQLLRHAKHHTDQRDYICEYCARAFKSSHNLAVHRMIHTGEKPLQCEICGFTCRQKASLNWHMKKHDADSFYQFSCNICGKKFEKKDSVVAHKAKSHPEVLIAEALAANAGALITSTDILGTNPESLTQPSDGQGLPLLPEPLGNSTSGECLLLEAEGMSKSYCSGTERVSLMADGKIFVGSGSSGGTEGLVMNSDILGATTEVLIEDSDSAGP
- assayText: Selectivity determination by Western Blot assay in MM1S cells: ZFP91
- Assay type: cell-based
- Set-up: key: A represents a no degradation observed at 30 μM; B represents trace degradation at 30 μM (below 20%); C represents weak degradation at 30 μM (below 50%); D represents degradation at 30 μM (>90%); E represents degradation at 3 μM (>90%); F represents degradation at 0.3 μM (>90%)
- runParameters: MM1S cells, 0.3, 3 and 30 μM, 6 hours

- compound: "Cc1c(Cl)cc(NC(=O)NCc2ccc3c(c2)C(=O)N(C2CCC(=O)NC2=O)C3)cc1CN1CCOCC1 (stereo not drawn)"
  subjectOfTest: "ZFP91 (Homo sapiens, UniProt Q96JP5)"
  ZFP91 degradation code: "A"
- compound: "Cc1ccc(NC(=O)NCc2ccc3c(c2)C(=O)N(C2CCC(=O)NC2=O)C3)c(Cl)c1Cl (stereo not drawn)"
  subjectOfTest: "ZFP91 (Homo sapiens, UniProt Q96JP5)"
  ZFP91 degradation code: "A"
